Tested on: Saccharomyces cerevisiae
Assay: protein stability index of tFT-peptide fusion (C-terminal peptide) (PSI (0-1 scale)); higher = more stable (slower turnover)
Details: genetic background: wild type; temperature: 30 C
Parameter protein stability index: see the listing below.
Reply with just the number.

In [3]: df
Out[3]:
   input_sequence  assay_result
0    SQKKKIKKYKET         0.217
1    PLPPTPPPALSQ           0.7
2    MSLLCPSPPFPT         0.695
3    HTRIGDGSRLLA         0.727
4    CLVGWAVAVLGD         0.458
5    ARRAWPPPTPLF         0.719

Input line: Fill in the blank: the reported protein stability index of "ICAPSPSPAFTF" is ____.
Output line: 0.689

Input line: Need protein stability index, item "FPVARGRHWLSR"
Output line: 0.732

* * *

Parameter: protein stability index. Scope: all listed entries.
System: Saccharomyces cerevisiae
Experiment: protein stability index of tFT-peptide fusion (C-terminal peptide) (PSI (0-1 scale)); higher = more stable (slower turnover)
Conditions: genetic background: wild type; temperature: 30 C
API doc: respond with a numeric literal and nothing else, no unit.

In [3]: df
Out[3]:
   input_sequence  assay_result
0    RHKVVLQPRPQV         0.649

Input line: # query: protein stability index of entry "LLFPCSVGLGVV"
Output line: 0.686

Input line: Report protein stability index for "GGGGMGGCSDDG" please.
Output line: 0.742

* * *

Tested on: Saccharomyces cerevisiae
Assay: protein stability index of tFT-peptide fusion (C-terminal peptide) (PSI (0-1 scale)); higher = more stable (slower turnover)
Conditions: genetic background: wild type; temperature: 30 C
sequences and their reported protein stability index

Past entries and their recorded results:
   input_sequence  assay_result
0    YASKQNPKPPSP         0.682
1    LVSSSPLPFSPI         0.646
2    GTHGQAQRVAGQ         0.725
3    ARGRSACGKLIY         0.654
4    DTPIGMPLNVTR         0.691

Input line: Request the reported protein stability index associated with "PRLQLHSDPNCS"
Output line: 0.733

Input line: Which protein stability index value is on record for "PCSRVICASEFT" ?
Output line: 0.701

Input line: Reported protein stability index, sequence "SLSALPRPPRLL" : ____
Output line: 0.614

Input line: Can you share its protein stability index? I mean this sequence: "FLCVLYFFLCVE"
Output line: 0.417

Input line: Please give the measured protein stability index for this sequence: "IFKNAWSSYRIE"
Output line: 0.714

* * *

Test system: Saccharomyces cerevisiae
Assay: protein stability index of tFT-peptide fusion (C-terminal peptide) (PSI (0-1 scale)); higher = more stable (slower turnover)
Details: genetic background: cdc34-1; temperature: 37 C
Mark F for protein stability index values under 0.4, and T for everything at or above.

Example results:
In [3]: df
Out[3]:
   input_sequence  group_label
0    VKIEVICRVSLI            F
1    SLCPFLCILCFG            F
2    PVLYSFSLWIHL            F

Input line: Reported protein stability index at or above 0.4? "RMLSLFFPLRTL"
Output line: T

Input line: Reported protein stability index reaches at least 0.4 for "VRVFSLVVCWVV" ?
Output line: F

Input line: Entry "IGFFFACFFSVF" : is its protein stability index no less than 0.4?
Output line: T

Input line: Given the entry "ALTLSYAIKLKV" , answer whether its protein stability index meets or surpasses 0.4.
Output line: F

Input line: Entry "GLPRASPLPIPV" : is its protein stability index no less than 0.4?
Output line: T

Input line: State whether the measured protein stability index reaches 0.4, counting equality as reaching it, for "PVKGTMIKAKNT"
Output line: T

Input line: Is protein stability index for "LAVVCIHAVSSF" at or above 0.4?
Output line: T

Input line: Reported protein stability index at or above 0.4? "RIWRLLIIIIKK"
Output line: F

Input line: Please tell me: is the sequence "LAINVRRELLFF" at or over 0.4 in terms of protein stability index?
Output line: T

* * *

Reported protein stability index values for a set of sequences
Test system: Saccharomyces cerevisiae
Assay: protein stability index of tFT-peptide fusion (C-terminal peptide) (PSI (0-1 scale)); higher = more stable (slower turnover)
Conditions: genetic background: wild type; temperature: 30 C
Give a plain numeric answer without units written out.

Illustrative cases are given below, each with its answer.
   input_sequence  assay_result
0    PRSFFYIQFVFA         0.224
1    GGLVVYVWGRWS         0.377
2    RSCKSIRGIFVC         0.229

Input line: # input sequence: "DNLYSLEFMAIR" ; wanted: its protein stability index
Output line: 0.645

Input line: Fill blank: measured protein stability index of the sequence "VYCLVLFFSQWC" is ____.
Output line: 0.351

Input line: Tell me the measured protein stability index of "FSRPTYYFIRHS" , please.
Output line: 0.272

Input line: // query protein stability index value for entry "TFVGWIVWLCGS"
Output line: 0.258

Input line: Give its protein stability index value. Item: "IWIHSVGVECTS"
Output line: 0.358

Input line: Look up protein stability index for this sequence: "FSLFYYIHLSVA"
Output line: 0.104

Input line: Reported protein stability index, sequence "VWGLGWLVVGVG" : ____
Output line: 0.179

* * *

sequences and their reported protein stability index
Tested on: Saccharomyces cerevisiae
Experiment: protein stability index of tFT-peptide fusion (C-terminal peptide) (PSI (0-1 scale)); higher = more stable (slower turnover)
Conditions: genetic background: wild type; temperature: 30 C
Reply with the value as a number alone.

The cases that follow already have their protein stability index on record.
In [3]: df
Out[3]:
   input_sequence              assay_system  assay_result
0    QVTLPHSSLLGW  Saccharomyces cerevisiae         0.675
1    LSDDRTLFWISG  Saccharomyces cerevisiae         0.728
2    VGGGVGVPGVLG  Saccharomyces cerevisiae         0.672
3    RRTTGLGWSGRP  Saccharomyces cerevisiae         0.644
4    CVEACVWYNAGL  Saccharomyces cerevisiae         0.738
5    YCHTSISPNSHL  Saccharomyces cerevisiae         0.787
6    WVGAGGGSGYGR  Saccharomyces cerevisiae         0.677
7    LPPPLPPPPPPV  Saccharomyces cerevisiae         0.651

Input line: So what's the measured protein stability index for this one? "LSPGPVHDRSRP"
Output line: 0.675

Input line: Would you kindly share the measured protein stability index for "WAAWGGGEAWGV" ?
Output line: 0.698

Input line: Can you share its protein stability index? I mean this sequence: "CSGRDLSLSMAD"
Output line: 0.744

* * *

Tested on: Saccharomyces cerevisiae
Test: protein stability index of tFT-peptide fusion (C-terminal peptide) (PSI (0-1 scale)); higher = more stable (slower turnover)
Settings: genetic background: das1 deletion; temperature: 30 C
Where protein stability index equals or exceeds 0.7, the correct label is 1; where it does not, the label is 0.

                             input_sequence  group_label
0  IFVYPLFLLSTF [YEL053W-A C-terminal 12 aa]            0
1      YCLFEKPTETTN [ALG9 C-terminal 12 aa]            1
2      LLERLSILDRLD [APS2 C-terminal 12 aa]            0
3   SFTDVLGQEQFI [YLR252W C-terminal 12 aa]            1
4   RHISRLSRLLCR [YGR273C C-terminal 12 aa]            0

Attention now turns to another entry.
Input line: Evaluate KDSIKLLDKARL [MSS2 C-terminal 12 aa] : protein stability index at minimum 0.7?
Output line: 1

* * *

Reported protein stability index values for a set of sequences
Test system: Saccharomyces cerevisiae
Assay: protein stability index of tFT-peptide fusion (C-terminal peptide) (PSI (0-1 scale)); higher = more stable (slower turnover)
Details: genetic background: wild type; temperature: 30 C
Answer with a bare number; do not write a unit.

   input_sequence        measurement_label  assay_result
0    LLGHLFTMLVIY  protein stability index         0.234
1    SHPAPPSPPPSP  protein stability index         0.391
2    ARFFFFCVGILI  protein stability index         0.354
3    GGVVGRPWWYVG  protein stability index         0.301

Input line: Looking for the measured protein stability index of "FFFVFLGLRSVF" , can you help?
Output line: 0.292

Input line: Requested field: protein stability index. Item: "FFRAYLQMYVTD"
Output line: 0.416

Input line: Can you look up the measured protein stability index of "PSVRCVVACFIN" for me?
Output line: 0.172

Input line: Consider the sequence "VWWTLWRVHMLG" and give its measured protein stability index.
Output line: 0.142

Input line: So what does the record say about protein stability index for "VLVVTAFTFSCP" ?
Output line: 0.317

Input line: For the sequence shown here, "VKIEVICRVSLI" , give the reported protein stability index.
Output line: 0.394

Input line: Data request, read-out protein stability index, for "GGLWRRLCLGVG"
Output line: 0.311

Input line: Quick check: protein stability index of "AWGSWTLCVAVH" ?
Output line: 0.089

Input line: Requested read-out: protein stability index. Entry: "SGLPLVILFLCL"
Output line: 0.436

Input line: Fill in the blank: the reported protein stability index of "VNRRCWISRTLP" is ____.
Output line: 0.174

Input line: Fill blank: measured protein stability index of the sequence "SGFWVSVDVFFV" is ____.
Output line: 0.136

Input line: What does the data say about its protein stability index? Entry: "LRMSLLVFLLFA"
Output line: 0.231

Input line: Please report the recorded protein stability index for "MWRWASKCRFSM" .
Output line: 0.245

Input line: Fill blank: measured protein stability index of the sequence "EERKIFLKVVKV" is ____.
Output line: 0.305

Input line: For "SSVGLFVLLCLV" , what is its reported protein stability index?
Output line: 0.205
